Value source: patent US9700543B2

- System Under Test: GLP-1R (Homo sapiens)
- Sequence (P43220 24-463): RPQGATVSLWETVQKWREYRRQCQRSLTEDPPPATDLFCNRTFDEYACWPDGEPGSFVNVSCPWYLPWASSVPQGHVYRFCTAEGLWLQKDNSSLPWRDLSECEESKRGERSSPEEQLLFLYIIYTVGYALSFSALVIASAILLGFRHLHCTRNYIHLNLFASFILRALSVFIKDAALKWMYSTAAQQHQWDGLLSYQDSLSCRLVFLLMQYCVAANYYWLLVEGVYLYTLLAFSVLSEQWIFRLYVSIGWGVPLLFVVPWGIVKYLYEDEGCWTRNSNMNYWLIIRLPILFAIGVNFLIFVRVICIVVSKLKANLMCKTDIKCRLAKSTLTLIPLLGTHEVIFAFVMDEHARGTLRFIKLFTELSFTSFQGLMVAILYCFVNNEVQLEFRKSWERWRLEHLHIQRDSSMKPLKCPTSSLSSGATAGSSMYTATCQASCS
- Sequence (P01275 100-127 partner limits assumed): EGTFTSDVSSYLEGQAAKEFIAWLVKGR
- Experimental Details: EC20 GLP-1(9-36) PAM cAMP assay: dose response of compound in the presence of fixed concentration of GLP-1(9-36)
- Condition Info: compound dose response with fixed GLP-1(9-36); GLP-1R CRE-bla CHO-K1 cells, cAMP
Measured Attribute: EC50 (nM)
Express your answer in nM, writing the number without its unit.

[
  {
    "Smiles Code": "COc1ccc(CC(=O)Nc2ccc(C(=O)N(CC(=O)O)Cc3ccc(-c4noc(-c5ccc(C)cc5)n4)cc3)cc2)c(C(F)(F)F)c1",
    "EC50, nM": 2900
  },
  {
    "Smiles Code": "CCCCCCOc1ccc(C(=O)Oc2ccc(CN(CC(=O)O)C(=O)c3ccc(NC(=O)Cc4ccc(OC)cc4)cc3)cc2)cc1",
    "EC50, nM": 3100
  }
]

Lab note: next molecule to report on.
Prompt line: Quick one: EC50 of COc1ccc(CC(=O)Nc2ccc(C(=O)N(CC(=O)O)Cc3ccc(-c4n[nH]c(-c5ccc(-c6ccc(C)cc6)cc5)n4)cc3)cc2)c(C(F)(F)F)c1 ?
Response line: 2700
